System: HCT116-MTAP-KO
assay-overview: Cell killing in HCT116 isogenic pair (Cell Titer-Glo viability), MTAP knock-out cells
Format: cell-based, human
recorded-conditions: Homo sapiens, HCT-116, 144 h, 6 days incubation, 0-10 μM, * = more than 50% viability inhibition at tested concentration without a full curve
Each record here notes measured IC50.
Lab book: enter the figure in nM, no units written.

Example entries and their recorded answers appear below.
CCN(C(=O)c1cc2nc(N)c3c(c2[nH]1)COC3)[C@@H](C)c1ncc(C2CC2)cc1F [Example 121] | 586
COCC(COC)N(Cc1c(F)cccc1F)C(=O)c1cc2nc(N)c3c(c2[nH]1)COC3 [Example 9] | 46
Nc1nc2cc(C(=O)N(Cc3ccc(-c4c(F)cccc4F)cn3)[C@@H]3CCOc4ccccc43)[nH]c2c2c1COC2 [Example 12] | 29
CO[C@@H]1CCOC[C@H]1N(Cc1ccc(-c2ccncc2)cn1)C(=O)c1cc2nc(N)c3c(c2[nH]1)COC3 [Example 28] | 11
CCN(C(=O)c1cc2nc(N)c3c(c2[nH]1)COC3)[C@H](C)c1ccc(C2CC2)cn1 [Example 112] | 59
CC[C@@H](C)N(Cc1ccc(C2CCC2)cn1)C(=O)c1cc2nc(N)c3c(c2[nH]1)COC3 [Example 107] | 20
N#Cc1cc(F)c(CN(Cc2ncccc2F)C(=O)c2cc3nc(N)c4c(c3[nH]2)COC4)c(F)c1 [Example 43] | 2.9
C[C@H]1OC[C@@H](N(C)C(=O)c2cc3nc(N)c4c(c3[nH]2)COC4)c2ccc(Br)cc21 [Example 81] | 9.7
CCC(CC)N(Cc1c(F)cc(C2CC2)cc1F)C(=O)c1cc2nc(N)c3c(c2[nH]1)COC3 [Example 105] | 13
C[C@H]1OCc2c1c(N)nc1cc(C(=O)N(C)[C@@H]3COCc4cc(C(F)(F)F)ccc43)[nH]c21 [Example 68] | 9

Which value of IC50 has been reported for C[C@H](c1ncc(C2CC2)cc1F)N(C(=O)c1cc2nc(N)c3c(c2[nH]1)COC3)C1CCC1 [Example 153] in the records?
10

Which value of IC50 has been reported for CN(C(=O)c1[nH]c2c3c(c(N)nc2c1C#N)COC3)[C@@H]1COCc2cc(C(F)(F)F)ccc21 [Example 92] in the records?
49

Which value of IC50 has been reported for CN(C(=O)c1cc2nc(N)c3c(c2[nH]1)COC3)[C@@H]1COC2(CC2)c2cc(C(F)(F)F)ccc21 [Example 91] in the records?
32

Which value of IC50 has been reported for C[C@H](c1ccc(C(F)(F)F)cc1F)N(C)C(=O)c1cc2nc(N)c3c(c2[nH]1)COC3 [Example 145] in the records?
26

Which value of IC50 has been reported for C[C@H]1OC[C@H](N(C)C(=O)c2cc3nc(N)c4c(c3[nH]2)COC4)c2ccc(Br)cc21 [Example 79] in the records?
525

---

Test system: HCT116-MTAP-KO
assay-overview: Cell killing in HCT116 isogenic pair (Cell Titer-Glo viability), MTAP knock-out cells
Format: cell-based, human
recorded-conditions: Homo sapiens, HCT-116, 144 h, 6 days incubation, 0-10 μM, * = more than 50% viability inhibition at tested concentration without a full curve
observable: IC50 (nM)
Lab book: enter the figure in nM, no units written.

CCN(C(=O)c1cc2nc(N)c3c(c2[nH]1)COC3)[C@@H]1COc2cc(C(F)(F)F)ccc21 | 51
CCN(C(=O)c1cc2nc(N)c3c(c2[nH]1)CO[C@@H]3C)[C@@H]1COC2(CC2)c2cc(C(F)(F)F)ccc21 | 19
COCCN(C(=O)c1cc2nc(N)c3c(c2[nH]1)COC3)[C@@H](C)c1ncc(C(F)(F)F)cc1F | 2020

Shift focus to the following entry.
Which value of IC50 has been reported for C[C@@H](c1c(F)cc(C(F)(F)F)cc1F)N(C)C(=O)c1cc2nc(N)c3c(c2[nH]1)COC3 in the records?
2680
